Each record here notes measured INHIBITION.
- System: Plasmodium falciparum
- Assay Comment: Screen against P. falciparum Asexual Blood Stage (ABS), at 5uM
- Type: functional, Dd2
- Condition Set: tested at 5 uM
The whole screen tested about 65,000 compounds, of which about 2,100 (3.2%) showed an effect of 50% or more. The median lay at about -52%. This is one part of a sample in which strong results are shown more often than they occur.

>  <Compound>
Cc1cccc(CN2C[C@@H](NC(=O)C3CC3)[C@H]3OCCC[C@H]32)n1

>  <INHIBITION [%]>
-83.3

$$$$
>  <Compound>
Cc1cc(CN2C[C@@H]3CCCO[C@@H]3[C@H](NS(C)(=O)=O)C2)no1

>  <INHIBITION [%]>
-28.3

$$$$
>  <Compound>
Cc1ccccc1CC1(CO)CCCN(c2ncncc2C(C)C)C1 (stereo unspecified)

>  <INHIBITION [%]>
85

$$$$
>  <Compound>
Cc1noc(C)c1CN1C[C@H]2CNC[C@H]2C1

>  <INHIBITION [%]>
9.33

$$$$
>  <Compound>
OCCCN(CCc1cccc(F)c1)C1CC1

>  <INHIBITION [%]>
-63.8

$$$$
>  <Compound>
CN(C)[C@@H]1CN(C(=O)Cc2cccc(F)c2)[C@@H]2CCCO[C@H]12

>  <INHIBITION [%]>
24.8

$$$$
>  <Compound>
CC(C)C(NC(=O)c1ccccc1)C(=O)N1CCC2(CC1)OCCO2 (stereo unspecified)

>  <INHIBITION [%]>
-37.3

$$$$
>  <Compound>
CC(C)N(C)Cc1cncc2c1CCN(Cc1ccoc1)C2

>  <INHIBITION [%]>
-19.3

$$$$
>  <Compound>
CN1CCOC(CN(C(=O)CN2CCCC2=O)c2nccs2)C1 (stereo unspecified)

>  <INHIBITION [%]>
-55.7

$$$$
>  <Compound>
CCc1ccc(CN2C[C@H](OC)[C@H]3COC[C@H]32)o1

>  <INHIBITION [%]>
-53

$$$$
>  <Compound>
CN(Cc1cccc(F)c1)C(=O)CN1CCCC1CCc1ccccc1 (stereo unspecified)

>  <INHIBITION [%]>
75

$$$$
